# System: MCF7 breast
# assay-method-text: NCI tumour cell line growth inhibition, 48 h
observable: TGI

The examples below pair each entry with its known result.
{"compound": "CN1CCCCCC(=N\\O)/C(=N/O)CCCCC1", "observable": "TGI", "obs-value": "> 100 µM"}
{"compound": "Cc1cc(N2CCN(c3ccnc4cc(Cl)ccc34)CC2)nc(NC2CCCCC2)n1", "observable": "TGI", "obs-value": "3.47 µM"}
{"compound": "O=c1[nH]c(=S)[nH]n1C(=S)n1[nH]c(=S)[nH]c1=O", "observable": "TGI", "obs-value": "40.6 µM"}
{"compound": "CCOC(=O)C1C(c2ccc(OC)cc2)c2c([nH][nH]c2=O)CC1(O)OCC (stereo unspecified)", "observable": "TGI", "obs-value": "> 100 µM"}

Q. Fill in: TGI of `Cn1c(Nc2ccccc2)c(C=Nc2ccccc2)c(=O)n(C)c1=O` is ___
A. > 100 µM

Q. Also check `COc1ccc(C(c2c[nH]c3ccc(Br)cc23)c2c[nH]c3ccc(Br)cc23)cc1`
A. 0.765 µM

* * *

# Test system: EKVX NSCLC
# assay-method-text: NCI tumour cell line growth inhibition, 48 h
Criterion: TGI meeting or surpassing 30 µM. Met: fulfilled. Not met: not fulfilled.

{"compound": "COc1ccc(C(c2c[nH]c3ccc(Br)cc23)c2c[nH]c3ccc(Br)cc23)cc1", "category-label": "not fulfilled"}
{"compound": "Cc1cc(NCCCCCCCCCC[n+]2c(C)cc(N)c3ccccc32)c2ccccc2n1", "category-label": "fulfilled"}

Q. Could you please find out whether `CC1=NN(c2nc(N)nc(CSCc3nc(N)nc(N(C)C)n3)n2)C(C)(C)C1` has TGI that meets 30 µM or exceeds it?
A. fulfilled

Q. Another: `O=C1NC(=S)NC(=O)C1=Cc1cccc2cc3ccccc3cc12`
A. not fulfilled

Q. Moving on to `Cc1cccc(C)c1NC(=S)NC=C(C(N)=O)C(N)=O`
A. fulfilled

Q. Item: `CCCN1CCN(c2ccc3nc(-c4ccc5nc(-c6cc(OC)ccc6OC)[nH]c5c4)[nH]c3c2)CC1`
A. not fulfilled

Q. Do the same for `Cc1cccc(C)c1NC(=O)CCc1nnc2s/c(=C\c3ccc(Cl)cc3)c(=O)n12` please
A. fulfilled

Q. Here is the next compound: `Cc1cccc(Cl)c1NC(=O)/C=C/c1ccccc1`
A. fulfilled

Q. What do we get for `CN(C)CC/C(=N\Nc1ccccc1)c1ccccc1` ?
A. fulfilled

Q. What do we get for COc1ccc2c(c1)N=C1CSC(c3cccc(Br)c3)N1C2 (stereo not given) ?
A. fulfilled

* * *

# Test system: MDA-MB-231 breast
# assay-method-text: NCI tumour cell line growth inhibition, 48 h
Recorded TGI for the following compounds

{"compound": "COc1ccc(-c2nc3ncccn3c2/C=C/C(=O)c2cc(OC)c(OC)c(OC)c2)cc1", "target-desc": "MDA-MB-231 breast", "obs-value": "17.2 µM"}
{"compound": "CC(=O)OC1COC(n2c(-c3ccc(Cl)cc3)cc(-c3ccccc3)c(C#N)c2=S)C(OC(C)=O)C1OC(C)=O (stereo unspecified)", "target-desc": "MDA-MB-231 breast", "obs-value": "9.38 µM"}
{"compound": "[N-]=[NH+]CC(=O)OC(COCc1ccccc1)COCc1ccccc1", "target-desc": "MDA-MB-231 breast", "obs-value": "> 100 µM"}

Q. # get_value(readout= TGI, system= MDA-MB-231 breast) for `COc1ccc2c(CN3CCC[C@H]3C(=O)O)cc3cc4c(cc3c2c1)OCO4`
A. > 100 µM

Q. Also `O=c1c2cc([N+](=O)[O-])ccc2n2n1Cc1ccccc1C2` ?
A. > 100 µM

Q. // same read-out, input: `N#Cc1c(Cl)c2ccccc2n2c1nc1ccccc12`
A. 74 µM

Q. Can you check `Cc1cccc(Cl)c1NC(=O)/C=C/c1ccccc1` next?
A. > 100 µM
